B1: TBX5 (parent)
chain: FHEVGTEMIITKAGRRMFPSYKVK

- Variants of: B1
- experiment_description: protein stability index of a GFP-peptide fusion (GPS, HEK-293T) (PSI 1-6); higher = more stable;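 further: lentivirally expressed fusions sorted by FACS into six bins by GFP to DsRed ratio, PSI derived from sequencing read proportions per bin multiplied by bin number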
- protocol_conditions: c terminus: a fixed tail appended

{"mutation_string": "F1K", "protein stability index": 3.54}
{"mutation_string": "K22E", "protein stability index": 1.9}
{"mutation_string": "T11F", "protein stability index": 1.71}
{"mutation_string": "R15T", "protein stability index": 2.21}
{"mutation_string": "G5Y", "protein stability index": 1.49}
{"mutation_string": "E3N", "protein stability index": 1.03}
{"mutation_string": "T6E", "protein stability index": 3.65}
{"mutation_string": "M8A", "protein stability index": 2.27}
{"mutation_string": "Y21K", "protein stability index": 2.21}
{"mutation_string": "K22A", "protein stability index": 1.97}
{"mutation_string": "V23E", "protein stability index": 2.5}
{"mutation_string": "G5D", "protein stability index": 2.58}
{"mutation_string": "F1G", "protein stability index": 3.65}
{"mutation_string": "K24H", "protein stability index": 1.59}
{"mutation_string": "M17A", "protein stability index": 2.38}
{"mutation_string": "P19W", "protein stability index": 1.75}
{"mutation_string": "E7G", "protein stability index": 2.98}
{"mutation_string": "G5T", "protein stability index": 1.92}
{"mutation_string": "R15D", "protein stability index": 2.71}
{"mutation_string": "I10V", "protein stability index": 2.14}
{"mutation_string": "F1P", "protein stability index": 3.5}
{"mutation_string": "T6A", "protein stability index": 1.93}
